tested on: HL-60(TB) leukemia; assay: NCI-60 one-dose screen, 48 h (100 = growth as untreated, 0 = no growth, -100 = all killed); conditions: 10 µM unless noted
About 83,000 compounds went through this panel and 20% of them were active in at least one assay; those are over-represented in the sample as a whole.
Result Type: growth (%)
Output spec: scalar in %, unitless text.

Illustrative cases are given below, each with its answer.
O=[N+]([O-])c1ccc(C(Br)c2ccc([N+](=O)[O-])cc2)cc1 = 57.6
C=CCOc1ccc2c(c1)CC[C@@H]1[C@@H]2CC[C@]2(C)C(=O)/C(=N/O)C[C@@H]12 = -28.4

Okay, now this compound:
Dear colleague, I am looking for the recorded growth of the following compound: COc1ccc(/C=C/C(=O)c2ccc(-n3cc(CN4CCN(c5cc6c(cc5F)c(=O)c(C(=O)O)cn6C5CC5)CC4)nn3)cc2)cc1 85.9

* * *

system: HL-60(TB) leukemia; assay: NCI-60 one-dose screen, 48 h; details: 10 µM unless noted
Compounds without any hit were thinned out: in the full panel of roughly 83,000, 20% have a hit. Activity calls are given as the source filed them. The calls were made as follows: active = growth percent below 10; inactive = the rest.
Could you please pick one outcome from this set? active, inactive

What did this assay record as the result for Cc1nc2c(c(-c3ccccc3)n1)Cc1c(ccc3ccccc13)O2 ? inactive

Short answer needed: outcome of this test for COc1cc(/C=C2\C(=O)N(CCOc3cc(O)c4c(=O)cc(-c5ccccc5)oc4c3)c3ccccc32)cc(OC)c1O ? active

Recorded test outcome, item COc1ccc(C(=O)C2=CC(=O)C(=O)C2)cc1OC inactive

Record lookup: outcome of this test for Cc1nc(N/N=C/c2cn(-c3ccccc3)nc2-c2cc3ccccc3oc2=O)sc1N=Nc1ccccc1 ? inactive

* * *

test system: HL-60(TB) leukemia; test: NCI-60 one-dose screen, 48 h; conditions: 10 µM unless noted
Compounds without any hit were thinned out: in the full panel of roughly 83,000, 20% have a hit. Activity calls are given as the source filed them. Rule for the calls: active = growth percent below 10; inactive = the rest.
Outcome field: choose from label 1 = active, label 0 = inactive

COc1ccc(NC(=O)c2ccc(NC3=C(c4ccc(Cl)cc4)C(=O)NC3=O)cc2)cc1 = label 0
COc1cc(/C=N/O)nc(-c2ccccn2)c1 = label 1
Nc1c(C(=O)Nc2cccc3ccccc23)sc2nc3c(cc12)CCCCCC3 = label 1

# input for lookup
Assay outcome for FC(F)(F)c1ccc(-c2cnc(Cl)nc2NC2CCCCCC2)cc1 : what was it? label 1

* * *

Test system: SN12C renal
Experiment: NCI-60 one-dose screen, 48 h (100 = growth as untreated, 0 = no growth, -100 = all killed)
Conditions: 10 µM unless noted
Procedure: Growth inhibition of the SN12C human tumor cell line is measured as a screen for anti-cancer activity. Cells are grown in 96 well plates and exposed to the test compound for 48 hours. Compounds are tested at a single concentration, which is 10^-5 M for most compounds. The reported endpoint is percent growth (GI% or GIPRCNT), where numbers from 0 - 100% represent growth inhibition, and numbers from -100% - 0 represent cell death. For example, a value of 40 represents 60% growth inhibition. […]
The panel holds about 83,000 compounds, 20% with a hit somewhere; the sample as a whole holds those more often. Activity calls are given as the source filed them. How the source made its calls: active means growth percent below 10; inactive means the rest.
Result Type: growth

O=C1NC2(CCNCC2)Nc2ccccc21 = 99.1% (inactive)
CN=C(NN)NN = 113% (inactive)
O1[As]2O[As]3O[As]1O[As](O2)O3 = 4.31% (active)

Which growth value is on record for O=C(CC1(O)C(=O)Nc2ccc(F)cc21)c1ccc(C(=O)NCC2CCC3(CC2)OOC2(CCCCC2)OO3)cc1 (stereo not given) ? 51.4% (inactive)

What growth value was documented for this molecule, CC1(C)CC(=O)CC(C)(C)N1N=O ? 106% (inactive)

Data request, read-out growth, for CC(C)CCC1(CCO)C(=O)NC(=S)NC1=O 100% (inactive)

Field request: growth | item: O=C(O)c1[nH]c(=O)[nH]c(=O)c1F 96.3% (inactive)

Could you share which growth value was measured for O=C1c2ccccc2C(=O)N1[N+](=O)[O-] ? 97.2% (inactive)

# query: growth of entry COc1cc(/C=C\c2cc(OC)c(OC)c(OC)c2)cc(N/C=C\C(=O)c2ccc(OC(F)(F)F)cc2)c1OC 36.5% (inactive)

Name the recorded growth for CN(Cc1cccnc1)N=O . 102% (inactive)

For O=c1[nH]c2cc(Cl)ccc2n1C1CCN(CCCC(c2ccc(F)cc2)c2ccc(F)cc2)CC1 , what is its reported growth? 20.1% (inactive)

Give its growth value. Item: CCCCCCCCCCOc1ccc(C(=O)Oc2ccc(CSP3(=O)OCC4OC(n5ccc(=O)[nH]c5=O)C(F)C4OP(=O)(O)OCC4OC(n5cnc6c(N)ncnc65)C(F)C4O3)cc2)cc1 (stereo not given) 101% (inactive)

For the molecule shown here, CC(C)Nc1ccc(Nc2ccccc2)cc1 , give the reported growth. 19.8% (inactive)

Would you kindly share the measured growth for C1CN1c1nc(N2CC2)nc(N2CC2)n1 ? 51.7% (inactive)

Field request: growth | item: CC(=O)C1CCC2C3CC=C4CC(OC(=O)Cc5ccc(N(CCCl)CCCl)cc5)CCC4(C)C3CCC12C (stereo not given) 96.6% (inactive)

# input molecule: C[C@@H]1CC[C@@H]2[C@@H]1[C@H](OC(=O)/C=C/C1CCCCC1)[C@]1(C3CCCCC3)C[C@@H](OC(=O)CO)[C@@]2(C)O1 ; wanted: its growth 31.2% (inactive)

Param item = CC(C)OC(=S)[S-].[Au+].c1ccc([PH+](c2ccccc2)c2ccccc2)cc1 ; retrieve measured growth. 16.7% (inactive)

Fill in the blank: the reported growth of C[CH2][Pb]([CH2]C)([CH2]C)[O]C(=O)c1ccc(N)cc1 is ____. 77.2% (inactive)

Reported growth for CC1(C)N=C(N)N=C(N)N1c1ccc(OCCCCOc2ccc(S(=O)(=O)F)cc2)c(Cl)c1 : what is it? 17.4% (inactive)

Attribution: PubChem BioAssay (NCI)
